Recorded Alpha1B (% inh), one value per entry.
Molecular target: Alpha1B (Homo sapiens, UniProt P35368)
Sequence (P35368 1-520): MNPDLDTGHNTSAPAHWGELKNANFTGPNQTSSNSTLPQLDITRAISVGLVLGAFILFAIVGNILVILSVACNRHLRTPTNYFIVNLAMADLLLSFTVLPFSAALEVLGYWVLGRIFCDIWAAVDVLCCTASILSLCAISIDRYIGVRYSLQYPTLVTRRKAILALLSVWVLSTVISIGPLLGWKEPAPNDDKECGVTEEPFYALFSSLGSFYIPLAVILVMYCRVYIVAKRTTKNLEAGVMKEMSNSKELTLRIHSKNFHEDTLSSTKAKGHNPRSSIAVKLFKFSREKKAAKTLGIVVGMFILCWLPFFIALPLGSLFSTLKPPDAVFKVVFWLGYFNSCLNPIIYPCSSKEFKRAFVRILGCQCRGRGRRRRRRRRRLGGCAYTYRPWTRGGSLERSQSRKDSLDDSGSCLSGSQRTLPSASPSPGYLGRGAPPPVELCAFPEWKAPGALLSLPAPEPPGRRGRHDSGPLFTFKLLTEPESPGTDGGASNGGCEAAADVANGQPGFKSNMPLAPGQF
Assay: Primary radioligand binding assay (NIMH PDSP); also: test concentration or dose not given here
Details: primary radiobinding assay, [3H]Prazosin
Structures can show the parent of a compound that is named as a salt.
Give the quantity in % inh, number only.

Request: Which Alpha1B (% inh) is listed for COc1ccc2c(c1)C(=O)N(CCN1CCN(c3ccccc3OC)CC1)C2 [GFR-VII-280-HCl] ?
Result: 101

Request: Note, next up: CC1Cc2ccccc2N1C(=O)CN1CCN(Cc2ccccc2)CC1 (stereo not shown)
Result: 16

Request: Note, next up: "COc1ccc2c(c1)C(=O)N(CCCN1CCN(c3ccccc3OC)CC1)C2"
Result: 102.5

More entries:
Request: Which Alpha1B (% inh) is listed for "COc1cc2c(cc1OC)C(=O)N(CCCCN1CCN(c3ccccc3OC)CC1)C2" ?
Result: 101.5

Request: Note, next up: CC1Cc2ccccc2N1C(=O)CN1CCN(c2ccccc2)CC1 (stereo not shown)
Result: −19.8

Request: Note, next up: "COc1ccc2c(c1)CN(CCCN1CCN(c3ccccc3OC)CC1)C2=O"
Result: 52.4

Request: Note, next up: COc1ccc2c(c1)C(=O)N(CCN1CCN(c3ccccc3OC)CC1)C2 [GFR-VII-280]
Result: 104.4
